Species: Rattus norvegicus
EXPERIMENT: DrugMatrix - Regimen: Daily Repeat
Format: toxicity, organism-based, Sprague-Dawley
Parameters: regimen Daily Repeat, gender Male, age 6-8 weeks
CONDITION_SET: in vivo, po, 0 mg/kg, 72 h, tissue Blood, route oral GAVAGE, dose level Control, time 3 day, vehicle 100 % WATER
ATTRIBUTE_MEASURED: NEUTROPHIL (%)
Please respond with the number in % and leave the unit unwritten.

Solved entries (count: 7):
Exercise: Identify measured NEUTROPHIL corresponding to CC[C@H]1OC(=O)[C@H](C)[C@@H](O[C@H]2C[C@@](C)(OC)[C@@H](O)[C@H](C)O2)[C@H](C)[C@@H](O[C@@H]2O[C@H](C)C[C@H](N(C)C)[C@H]2O)[C@](C)(OC)C[C@@H](C)C(=O)[C@H](C)[C@@H](O)[C@]1(C)O
Key: 5.83

Exercise: Identify measured NEUTROPHIL corresponding to CCOC(N)=O
Key: 8.5

Exercise: Identify measured NEUTROPHIL corresponding to Nc1ccc(S(=O)(=O)Nc2ncccn2)cc1
Key: 14.5

Exercise: Identify measured NEUTROPHIL corresponding to O=C(O)c1cc(=O)c2c(OCC(O)COc3cccc4oc(C(=O)O)cc(=O)c34)cccc2o1
Key: 15

Exercise: Identify measured NEUTROPHIL corresponding to CCCc1nn(C)c2c(=O)[nH]c(-c3cc(S(=O)(=O)N4CCN(C)CC4)ccc3OCC)nc12
Key: 7.17

Exercise: Identify measured NEUTROPHIL corresponding to CC(C)(C)NC[C@H](O)COc1nsnc1N1CCOCC1
Key: 9.17

Exercise: Identify measured NEUTROPHIL corresponding to O=C(O)c1cccnc1
Key: 7

Consider the additional molecule presented here.
Exercise: Identify measured NEUTROPHIL corresponding to CNS(=O)(=O)Cc1ccc2[nH]cc(CCN(C)C)c2c1
Key: 8.33

====

Species: Rattus norvegicus
EXPERIMENT: DrugMatrix - Regimen: Daily Repeat
Assay type: toxicity, organism-based, Sprague-Dawley
Set-up: regimen Daily Repeat, gender Male, age 6-8 weeks
CONDITION_SET: in vivo, po, 0 mg/kg, 72 h, tissue Plasma, route oral GAVAGE, dose level Control, time 3 day, vehicle .5 % CMC
Below, each entry is listed alongside its reported URIC ACID.
Please respond with the number in mg/dL and leave the unit unwritten.

Solved entries (count: 3):
Exercise: Identify measured URIC ACID corresponding to CC(=O)O[C@]1(C(C)=O)CC[C@H]2[C@@H]3C=C(Cl)C4=CC(=O)[C@@H]5C[C@@H]5[C@]4(C)[C@H]3CC[C@@]21C [CYPROTERONE ACETATE]
Key: 1.28

Exercise: Identify measured URIC ACID corresponding to COc1ccc(/C=C/C(=O)Nc2ccccc2C(=O)O)cc1OC
Key: 1.63

Exercise: Identify measured URIC ACID corresponding to CN1C(=O)CN=C(c2ccccc2)c2cc(Cl)ccc21 [DIAZEPAM]
Key: 1.55

Consider the additional compound presented here.
Exercise: Identify measured URIC ACID corresponding to Nc1cccc(Cl)c1 [3-CHLOROANILINE]
Key: 1.57

====

Below, each entry is listed alongside its reported EOSINOPHIL.
Species on record: Rattus norvegicus
EXPERIMENT: DrugMatrix - Regimen: Daily Repeat
Type: toxicity, organism-based, Sprague-Dawley
Parameters: regimen Daily Repeat, gender Male, age 6-8 weeks
CONDITION_SET: in vivo, po, 0 mg/kg, 120 h, tissue Blood, route oral GAVAGE, dose level Control, time 5 day, […]
Please respond with the number in % and leave the unit unwritten.

Solved entries (count: 2):
Exercise: Identify measured EOSINOPHIL corresponding to CC(C)OC(=O)C(C)(C)Oc1ccc(C(=O)c2ccc(Cl)cc2)cc1 [FENOFIBRATE]
Key: 0

Exercise: Identify measured EOSINOPHIL corresponding to CN(CCOc1ccc(CC2SC(=O)NC2=O)cc1)c1ccccn1 (stereo not given)
Key: 0.5

Further cases:
Exercise: Identify measured EOSINOPHIL corresponding to CC(C)Cc1ccc(CC(=O)O)cc1
Key: 1

Exercise: Identify measured EOSINOPHIL corresponding to CCn1cc(C(=O)O)c(=O)c2cc(F)c(N3CCNCC3)nc21
Key: 1.83

Exercise: Identify measured EOSINOPHIL corresponding to CC(=O)Nc1nnc(S(N)(=O)=O)s1 [ACETAZOLAMIDE]
Key: 0
